- test_system: human FGFR1c + KLB receptor complex on HEK293 iLite FGF21 reporter cells (human, UniProt P11362 22-822; Q86Z14 1-1044)
- Sequence (P11362 22-822, chain 1 of 2): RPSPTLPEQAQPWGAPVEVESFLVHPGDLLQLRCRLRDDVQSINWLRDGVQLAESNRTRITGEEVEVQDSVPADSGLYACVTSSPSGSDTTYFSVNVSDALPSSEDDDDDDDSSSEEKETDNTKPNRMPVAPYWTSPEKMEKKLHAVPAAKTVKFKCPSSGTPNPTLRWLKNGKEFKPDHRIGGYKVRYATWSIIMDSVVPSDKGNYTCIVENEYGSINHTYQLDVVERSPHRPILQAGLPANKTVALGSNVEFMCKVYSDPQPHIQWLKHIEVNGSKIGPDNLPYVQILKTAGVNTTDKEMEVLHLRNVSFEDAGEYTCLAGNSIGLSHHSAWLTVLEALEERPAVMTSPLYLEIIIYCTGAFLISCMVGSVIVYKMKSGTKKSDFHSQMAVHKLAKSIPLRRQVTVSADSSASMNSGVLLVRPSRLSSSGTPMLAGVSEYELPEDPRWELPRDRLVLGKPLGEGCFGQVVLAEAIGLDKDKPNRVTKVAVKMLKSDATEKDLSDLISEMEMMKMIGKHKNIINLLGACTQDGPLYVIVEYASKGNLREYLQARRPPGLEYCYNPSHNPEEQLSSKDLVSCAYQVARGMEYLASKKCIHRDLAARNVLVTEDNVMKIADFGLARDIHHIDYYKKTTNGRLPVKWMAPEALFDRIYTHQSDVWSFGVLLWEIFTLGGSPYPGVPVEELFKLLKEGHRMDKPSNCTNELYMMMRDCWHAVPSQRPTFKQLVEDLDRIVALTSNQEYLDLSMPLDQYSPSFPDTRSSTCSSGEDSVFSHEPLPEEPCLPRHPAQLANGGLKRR
- Sequence (Q86Z14 whole entry, chain 2 of 2): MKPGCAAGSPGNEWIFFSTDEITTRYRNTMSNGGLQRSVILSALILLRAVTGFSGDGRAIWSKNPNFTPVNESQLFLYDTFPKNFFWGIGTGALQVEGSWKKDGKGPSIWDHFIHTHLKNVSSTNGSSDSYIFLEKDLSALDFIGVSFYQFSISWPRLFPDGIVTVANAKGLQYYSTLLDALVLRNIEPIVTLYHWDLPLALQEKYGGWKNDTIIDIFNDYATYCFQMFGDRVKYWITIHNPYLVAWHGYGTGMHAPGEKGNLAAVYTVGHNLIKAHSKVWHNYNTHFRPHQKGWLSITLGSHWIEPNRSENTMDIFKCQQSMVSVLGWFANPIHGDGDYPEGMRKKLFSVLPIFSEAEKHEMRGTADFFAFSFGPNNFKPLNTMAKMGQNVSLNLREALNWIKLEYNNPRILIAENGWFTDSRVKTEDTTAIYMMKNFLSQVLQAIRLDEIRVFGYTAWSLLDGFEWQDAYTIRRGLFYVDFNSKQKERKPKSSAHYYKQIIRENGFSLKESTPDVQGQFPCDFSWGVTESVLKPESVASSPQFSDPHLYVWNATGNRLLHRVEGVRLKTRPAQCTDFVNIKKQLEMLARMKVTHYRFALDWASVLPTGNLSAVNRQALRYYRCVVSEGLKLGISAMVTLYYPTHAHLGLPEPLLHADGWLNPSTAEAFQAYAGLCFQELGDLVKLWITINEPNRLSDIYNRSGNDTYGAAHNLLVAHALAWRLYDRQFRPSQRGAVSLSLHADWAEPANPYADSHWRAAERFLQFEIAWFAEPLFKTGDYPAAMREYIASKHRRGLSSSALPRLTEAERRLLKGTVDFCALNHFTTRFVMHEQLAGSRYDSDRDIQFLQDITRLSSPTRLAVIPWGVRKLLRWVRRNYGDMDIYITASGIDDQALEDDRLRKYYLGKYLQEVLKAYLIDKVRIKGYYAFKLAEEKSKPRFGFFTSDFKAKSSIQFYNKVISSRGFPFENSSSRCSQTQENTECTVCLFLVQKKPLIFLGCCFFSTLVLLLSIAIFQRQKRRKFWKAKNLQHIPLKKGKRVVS
- protocol: cell-based or functional assay
The binders listed here are annotated with their Emax.
Numeric only. Scale: %

Check out these entries, answers already filled in.
{"binder": "Ab0348 (antibody, IgG4, V domains shown) VH: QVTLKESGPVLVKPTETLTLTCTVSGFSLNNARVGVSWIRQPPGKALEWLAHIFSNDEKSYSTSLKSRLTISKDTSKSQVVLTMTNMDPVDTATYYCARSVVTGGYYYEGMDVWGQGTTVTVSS VL: SYVLTQPPSVSVAPGQTARITCGGSNIGSESVHWYQQKPGQAPVLVVYEESDRPSGIPERFSGSNSGNTATLTISRVEAGDEADYYCQVWTGESDHVVFGGGTKLTVLG", "unit_descriptor": "%", "Emax": 641}
{"binder": "Ab0459 (antibody, IgG4, V domains shown) VH: QVTLKESGPVLVKPTETLTLTCTVSGFSLSYARVGVSWIRQPPGKALEWLAHIFSNDEKSYSTSLKSRLTISKDTSKSQVVLTMTNMDPVDTATYYCARSVVTGGYYYEGMDVWGQGTTVTVSS VL: SYVLTQPPSVSVAPGQTARITCGGSNIGSESVHWYQQKPGQAPVLVVYSASDRPSGIPERFSGSNSGNTATLTISRVEAGDEADYYCQVWEGESDHVVFGGGTKLTVLG", "unit_descriptor": "%", "Emax": 1110}
{"binder": "Ab0329 (antibody, IgG4, V domains shown) VH: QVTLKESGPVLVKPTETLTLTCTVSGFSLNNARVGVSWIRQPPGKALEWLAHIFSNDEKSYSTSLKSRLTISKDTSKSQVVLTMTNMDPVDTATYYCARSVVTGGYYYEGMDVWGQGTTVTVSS VL: SYVLTQPPSVSVAPGQTARITCGGSNIGSESVHWYQQKPGQAPVLVVYYSSDRPSGIPERFSGSNSGNTATLTISRVEAGDEADYYCQVWAGSSDHVVFGGGTKLTVLG", "unit_descriptor": "%", "Emax": 443}
{"binder": "Ab0417 (antibody, IgG4, V domains shown, IgG4 PE) VH: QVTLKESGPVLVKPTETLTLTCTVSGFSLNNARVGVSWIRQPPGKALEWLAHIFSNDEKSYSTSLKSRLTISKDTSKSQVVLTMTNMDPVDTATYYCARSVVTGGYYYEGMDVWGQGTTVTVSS VL: SYVLTQPPSVSVAPGQTARITCGGSNIGSESVHWYQQKPGQAPVLVVYYESDRPSGIPERFSGSNSGNTATLTISRVEAGDEADYYCQVWHGESDHVVFGGGTKLTVLG", "unit_descriptor": "%", "Emax": 1110}

Now for another entry.
Enquiry: Suppose we examine the binder Ab0332 (antibody, IgG4, V domains shown, IgG4 PE) VH: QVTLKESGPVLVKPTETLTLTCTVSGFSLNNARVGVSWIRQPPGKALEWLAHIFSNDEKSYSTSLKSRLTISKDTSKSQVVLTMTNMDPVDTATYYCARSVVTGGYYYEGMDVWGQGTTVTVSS VL: SYVLTQPPSVSVAPGQTARITCGGSNIGSESVHWYQQKPGQAPVLVVYSESDRPSGIPERFSGSNSGNTATLTISRVEAGDEADYYCQVWEGASDHVVFGGGTKLTVLG ; what Emax value has been reported?
Return: 995

src = patent US20220010021A1
